testedOn: human RORgammaT-Ligand Binding Domain (LBD) (Homo sapiens (Human))
Sequence (P51449 269-508): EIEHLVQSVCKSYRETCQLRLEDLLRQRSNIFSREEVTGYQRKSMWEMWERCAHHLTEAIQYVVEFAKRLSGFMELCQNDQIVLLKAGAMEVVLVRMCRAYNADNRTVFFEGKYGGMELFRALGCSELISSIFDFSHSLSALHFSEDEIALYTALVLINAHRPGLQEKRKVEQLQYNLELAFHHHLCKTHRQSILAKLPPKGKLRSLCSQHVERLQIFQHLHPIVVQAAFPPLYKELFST
protocolText: RORγ-Ligand Binding Domain TR-FRET assay (co-activator peptide SRC1_2 recruitment)
Type: biochemical
conditionSet: HIS-tagged RORγ-LBD 3 nM, biotinylated SRC1 LXXLL peptide 100 nM, incubated overnight at 4° C., 665 nm/615 nm signal quotient; read-out: Fret IC50
Source text: Activation of RORgammaT activity can be measured using, e.g., biochemical TR-FRET assay. In such an assay, interaction of cofactor-derived peptides with human RORgammaT-Ligand Binding Domain (LBD) can be measured. To identify novel antagonists of RORgammaT, an assay was developed which employs the interaction of RORgammaT with its co-activator peptide SRC1_2. […] The RORγ-Ligand Binding Domain TR-FRET Assay was run according to the following protocol. […]
pIC50: −log10 of the molar value.
Class YES: pIC50 at least 7. Class NO: pIC50 below 7.

| molecule | labelValue |
| --- | --- |
| CNCC(CO)OC(=O)c1ccc2c(C3=CCC(C(=O)O)CC3)nn(C(=O)c3c(Cl)cccc3C(F)(F)F)c2c1 (stereo not drawn) [Example 4Z] | NO |
| COC1CN(C(=O)c2ccc3c(C4=CC[C@](C)(C(=O)O)CC4)nn(C(=O)c4c(Cl)cccc4C4CC4)c3c2)C1 (single isomer, unassigned) [Example 2C] | YES |
| C[C@@H]1COCCN1C(=O)c1ccc2c(C3=CCC(C(=O)O)CC3)nn(C(=O)c3c(Cl)cccc3C(F)(F)F)c2c1 (stereo partly drawn) [Example 4Q] | NO |
| CN(C(=O)c1ccc2c(C3=CCC(C(=O)O)CC3)nn(C(=O)c3c(Cl)cccc3C(F)(F)F)c2c1)C1CCOCC1 (stereo not drawn) [Example 4P] | YES |
| C[C@]1(C(=O)O)CC[C@H](c2nn(C(=O)c3c(Cl)cccc3C(F)(F)F)c3cccc(F)c32)CC1 [Example 9A] | YES |

----------
testedOn: human RORgammaT-Ligand Binding Domain (LBD) (Homo sapiens (Human))
protocolText: RORγ-Ligand Binding Domain TR-FRET assay (co-activator peptide SRC1_2 recruitment)
Type: biochemical
conditionSet: HIS-tagged RORγ-LBD 3 nM, biotinylated SRC1 LXXLL peptide 100 nM, incubated overnight at 4° C., 665 nm/615 nm signal quotient; read-out: Fret IC50
measureName: IC50 (µM)

| molecule | measureName | measuredResult |
| --- | --- | --- |
| C[C@H]1COCCN1C(=O)c1ccc2c(C3=CCC(C(=O)O)CC3)nn(C(=O)c3c(Cl)cccc3C(F)(F)F)c2c1 (stereo partly shown) | IC50 | 0.308 |
| CC1(C(=O)O)CC=C(c2nn(C(=O)c3c(Cl)cccc3C(F)(F)F)c3cccnc23)CC1 (stereo not shown) | IC50 | 0.17 |
| C[C@H]1CN(C(=O)c2ccc3c(C4=CCC(C(=O)O)CC4)nn(C(=O)c4c(Cl)cccc4C(F)(F)F)c3c2)CCO1 (stereo partly shown) | IC50 | 0.021 |
| C[C@@H]1CCCN1C(=O)c1ccc2c(C3=CCC(C(=O)O)CC3)nn(C(=O)c3c(Cl)cccc3C(F)(F)F)c2c1 (stereo partly shown) | IC50 | 0.115 |
| Cc1cccc(Cl)c1C(=O)n1nc(C2=CCC(C(=O)O)CC2)c2ncccc21 (stereo not shown) | IC50 | 0.123 |
| CC1CN(C(=O)c2ccc3c(C4=CCC(C(=O)O)CC4)nn(C(=O)c4c(Cl)cccc4C(F)(F)F)c3c2)CCO1 (stereo not shown) | IC50 | 0.024 |
| COC1CN(C(=O)c2ccc3c(C4=CCC(C(=O)O)CC4)nn(C(=O)c4c(Cl)cccc4C4CC4)c3c2)C1 (single isomer, unassigned) [Example 2B] | IC50 | 0.002 |
| C[C@]1(c2nn(C(=O)c3c(Cl)cccc3C(F)(F)F)c3cccc(F)c32)CC[C@H](C(=O)O)CC1 | IC50 | 0.663 |
| CC(C)N(C)C(=O)c1ccc2c(C3=CCC(C(=O)O)CC3)nn(C(=O)c3c(Cl)cccc3C(F)(F)F)c2c1 (stereo not shown) | IC50 | 0.164 |
| C[C@]1(c2nn(C(=O)c3c(Cl)cccc3C(F)(F)F)c3cccc(F)c32)CC[C@@H](C(=O)O)CC1 | IC50 | 0.872 |
| CC(C)NC(=O)c1ccc2c(C3=CCC(C(=O)O)CC3)nn(C(=O)c3c(Cl)cccc3C(F)(F)F)c2c1 (stereo not shown) | IC50 | 1.12 |
| O=C(O)C1CC=C(c2nn(C(=O)c3c(Cl)cccc3C(F)(F)F)c3cc(C(=O)N4CC(F)(F)C4)ccc23)CC1 (stereo not shown) | IC50 | 0.005 |
| CC1C=C(c2nn(C(=O)c3c(Cl)cccc3C(F)(F)F)c3cccnc23)CCC1C(=O)O (stereo not shown) | IC50 | 0.182 |
| O=C(NC1CC1)c1ccc2c(C3=CCC(C(=O)O)CC3)nn(C(=O)c3c(Cl)cccc3C(F)(F)F)c2c1 (stereo not shown) | IC50 | 0.143 |
| CN(CCO)C(=O)c1ccc2c(C3=CCC(C(=O)O)CC3)nn(C(=O)c3c(Cl)cccc3C(F)(F)F)c2c1 (stereo not shown) | IC50 | 0.04 |
| CN1CCN(C(=O)c2ccc3c(C4=CCC(C(=O)O)CC4)nn(C(=O)c4c(Cl)cccc4C(F)(F)F)c3c2)CC1=O (stereo not shown) | IC50 | 0.003 |
| O=C(c1c(Cl)cccc1C(F)(F)F)n1nc([C@H]2CC[C@@H](C(=O)O)CC2)c2ncccc21 [Example 11B] | IC50 | 10 |
| O=C(O)C1CC=C(c2nn(C(=O)c3c(Cl)cccc3C(F)(F)F)c3cc(C(=O)N4CCC4)ccc23)CC1 (stereo not shown) | IC50 | 0.177 |
| Cc1cccc(Cl)c1C(=O)n1nc(C2=CCC(C(=O)O)CC2)c2c(F)cccc21 (stereo not shown) | IC50 | 0.031 |
| O=C(O)C1CC=C(c2nn(C(=O)c3c(Cl)cccc3C(F)(F)F)c3cc(C(=O)N4CC(F)C4)ccc23)CC1 (stereo not shown) | IC50 | 0.003 |
| COC1CN(C(=O)c2ccc3c(C4=CCC(C(=O)O)CC4)nn(C(=O)c4c(Cl)cccc4C(F)(F)F)c3c2)C1 (stereo not shown) | IC50 | 0.002 |
| CC1(c2nn(C(=O)c3c(Cl)cccc3C(F)(F)F)c3cccc(F)c23)CCC(C(=O)O)CC1 (stereo not shown) | IC50 | 1.88 |
| COC1CN(C(=O)c2ccc3c(C4=CCC(C(=O)O)CC4)nn(C(=O)c4c(Cl)cccc4C4CC4)c3c2)C1 (single isomer, unassigned) [Example 2A] | IC50 | 0.002 |
| O=C(O)C1CC=C(c2nn(C(=O)c3c(Cl)cccc3C(F)(F)F)c3cccc(F)c23)CC1O (stereo not shown) | IC50 | 0.015 |
| CN(C(=O)c1ccc2c(C3=CCC(C(=O)O)CC3)nn(C(=O)c3c(Cl)cccc3C(F)(F)F)c2c1)C1CC1 (stereo not shown) | IC50 | 0.009 |
| CC1(C(=O)O)CC=C(c2nn(C(=O)c3c(Cl)cccc3C3CC3)c3cccc(F)c23)CC1 (stereo not shown) | IC50 | 0.007 |
| O=C(O)C1CC=C(c2nn(C(=O)c3c(Cl)cccc3C(F)(F)F)c3cc(C(=O)N4CC(O)C4)ccc23)CC1 (stereo not shown) | IC50 | 0.003 |
| CN(C)C(=O)c1ccc2c(C3=CCC(C(=O)O)CC3)nn(C(=O)c3c(Cl)cccc3C(F)(F)F)c2c1 (stereo not shown) | IC50 | 0.018 |
